Test: Particle size distribution of micronized cinacalcet hydrochloride by Malvern Mastersizer
Format: physicochemical
Conditions: particle size after jet milling
The entries below come with measured D50 values attached.
Only the number, expressed in μm, is required.

Example cases with answers are listed next.
| compound | output_unit | D50 |
| --- | --- | --- |
| C[C@@H](NCCCc1cccc(C(F)(F)F)c1)c1cccc2ccccc12.Cl [Batch No 70001] | μm | 6.55 |
| C[C@@H](NCCCc1cccc(C(F)(F)F)c1)c1cccc2ccccc12.Cl [Batch No 60002] | μm | 9.58 |

For C[C@@H](NCCCc1cccc(C(F)(F)F)c1)c1cccc2ccccc12.Cl [Batch No 70002] the compound record lists D50 as 6.81

###

The entries below come with measured D90 values attached.
Assay: Particle size distribution of micronized cinacalcet hydrochloride by Malvern Mastersizer
Format: physicochemical
Settings: particle size after jet milling

| compound | D90 |
| --- | --- |
| C[C@@H](NCCCc1cccc(C(F)(F)F)c1)c1cccc2ccccc12.Cl [Batch No 70001] | 13.4 μm |
| C[C@@H](NCCCc1cccc(C(F)(F)F)c1)c1cccc2ccccc12.Cl [Batch No 60002] | 18.8 μm |
| C[C@@H](NCCCc1cccc(C(F)(F)F)c1)c1cccc2ccccc12.Cl [Batch No 70002] | 15.4 μm |

Attention now shifts to the item below.
For C[C@@H](NCCCc1cccc(C(F)(F)F)c1)c1cccc2ccccc12.Cl [Micronized cinacalcet hydrochloride] the compound record lists D90 as ≤ 20 μm

###

Assay: Particle size distribution of micronized cinacalcet hydrochloride by Malvern Mastersizer
Format: physicochemical
Conditions: particle size after jet milling
endpoint_label: D10 (μm)
Only the number, expressed in μm, is required.

Example cases with answers are listed next.
| compound | output_unit | D10 |
| --- | --- | --- |
| C[C@@H](NCCCc1cccc(C(F)(F)F)c1)c1cccc2ccccc12.Cl [Batch No 70002] | μm | 2.35 |
| C[C@@H](NCCCc1cccc(C(F)(F)F)c1)c1cccc2ccccc12.Cl [Batch No 70001] | μm | 2.66 |

Attention now shifts to the item below.
For C[C@@H](NCCCc1cccc(C(F)(F)F)c1)c1cccc2ccccc12.Cl [Batch No 60002] the compound record lists D10 as 4.06

This collection of values is drawn from patent US11331283B2.
